assay_target: Galanin receptor type 2 (Homo sapiens, UniProt O43603)
Sequence (O43603 whole entry): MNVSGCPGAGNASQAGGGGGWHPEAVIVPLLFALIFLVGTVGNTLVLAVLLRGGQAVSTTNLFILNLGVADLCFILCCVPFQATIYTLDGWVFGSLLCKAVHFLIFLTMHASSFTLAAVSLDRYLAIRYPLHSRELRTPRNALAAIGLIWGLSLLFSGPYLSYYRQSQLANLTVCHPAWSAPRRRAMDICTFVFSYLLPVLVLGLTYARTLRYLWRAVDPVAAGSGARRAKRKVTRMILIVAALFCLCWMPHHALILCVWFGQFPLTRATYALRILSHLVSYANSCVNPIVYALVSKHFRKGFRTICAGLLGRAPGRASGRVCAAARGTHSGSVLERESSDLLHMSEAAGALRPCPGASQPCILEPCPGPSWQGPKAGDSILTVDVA
Counter-ions that a name gives are not always drawn.
readout_name: Kd

Query Kd for COC(=O)[C@H](CCCCN)NC(=O)[C@]1(C)NC(=O)c2nc(oc2C)[C@](C)(C(=O)NC2c3ccccc3-c3ccccc32)NC(=O)c2nc(oc2C)[C@](C)(C(=O)NCC2CCCCC2)NC(=O)c2nc1oc2C [GALMIC TFA] > 100 µM

###

assay_target: Galanin receptor type 2 (Homo sapiens)
protocol_summary: Binding affinity to human GalR2
readout_name: pKd
For clarity, pKd is expressed as the negative log10 of concentration in mol/L.

Return pKd for the following substance: `H-GWTLNSAGYLLGPHAVGNHRSFSDKNGLT-OH` 8.64
